system: biotinylated monoclonal antibody specific for DAEFRH (natural N-terminal Aβ42 sequence); assay: Inhibition assay (competition ELISA): mimotope peptides compete with plate-bound DAEFRH-BSA for the monoclonal antibody, Example 3 (FIGS. 2 and 3); format: binding, mice; conditions: summary grade: strong, intermediate, weak, none
assay_metric: Inhibitory capacity of mimotopes (Table 1)

Worked cases, Inhibitory capacity of mimotopes (Table 1) given:
molecule	recorded_measurement
CC[C@H](C)[C@H](NC(=O)[C@H](CCCNC(=N)N)NC(=O)[C@H](CC(C)C)NC(=O)[C@H](CCC(=O)O)NC(=O)[C@H](CCCCN)NC(=O)[C@@H](N)CC(=O)O)C(=O)N[C@@H](CS)C(=O)O [Peptide 3001, DKELRI]	strong
C[C@H](NC(=O)[C@@H](N)CCC(=O)O)C(=O)N[C@@H](CCC(=O)O)C(=O)N[C@@H](Cc1ccccc1)C(=O)N[C@@H](CCCNC(=N)N)C(=O)NCC(=O)N[C@@H](CS)C(=O)O [Peptide 3006, EAEFRG]	strong
CC(C)C[C@H](NC(=O)[C@@H](N)CCC(=O)O)C(=O)N[C@@H](CCC(=O)O)C(=O)N[C@@H](Cc1ccccc1)C(=O)N[C@@H](CCCNC(=N)N)C(=O)NCC(=O)N[C@@H](CS)C(=O)O [Peptide 3008, ELEFRG]	weak
N=C(N)NCCC[C@H](NC(=O)[C@H](Cc1ccccc1)NC(=O)[C@H](CCC(=O)O)NC(=O)[C@H](Cc1ccc(O)cc1)NC(=O)[C@@H](N)CC(=O)O)C(=O)NCC(=O)N[C@@H](CS)C(=O)O [Peptide 3007, DYEFRG]	strong
CC[C@H](C)[C@H](NC(=O)[C@H](CCCNC(=N)N)NC(=O)[C@H](CC(C)C)NC(=O)[C@H](CCC(=O)O)NC(=O)[C@H](Cc1c[nH]c2ccccc12)NC(=O)[C@@H](N)CC(=O)O)C(=O)N[C@@H](CS)C(=O)O [Peptide 3002, DWELRI]	intermediate
C[C@H](NC(=O)[C@@H](N)Cc1ccc(O)cc1)C(=O)N[C@@H](CCC(=O)O)C(=O)N[C@@H](Cc1ccccc1)C(=O)N[C@@H](CCCNC(=N)N)C(=O)NCC(=O)N[C@@H](CS)C(=O)O [Peptide 3005, YAEFRG]	intermediate

Req: Find the measured Inhibitory capacity of mimotopes (Table 1): item N=C(N)NCCC[C@H](NC(=O)[C@H](Cc1ccccc1)NC(=O)[C@H](CCC(=O)O)NC(=O)[C@H](Cc1ccccc1)NC(=O)[C@@H](N)CO)C(=O)NCC(=O)N[C@@H](CS)C(=O)O [Peptide 3009, SFEFRG] , target or system biotinylated monoclonal antibody specific for DAEFRH (natural N-terminal Aβ42 sequence).
Resp: weak
